// data source = patent US20210255193A1

Molecular target: PFKM 6-phosphofructokinase, muscle type (Homo sapiens, UniProt P08237)
Construct: isoTOP-ABPP experiments performed in cell lysates (in vitro); endogenous in cells; host or cells: MDA-MB-231 soluble lysate
Sequence (P08237 1-780): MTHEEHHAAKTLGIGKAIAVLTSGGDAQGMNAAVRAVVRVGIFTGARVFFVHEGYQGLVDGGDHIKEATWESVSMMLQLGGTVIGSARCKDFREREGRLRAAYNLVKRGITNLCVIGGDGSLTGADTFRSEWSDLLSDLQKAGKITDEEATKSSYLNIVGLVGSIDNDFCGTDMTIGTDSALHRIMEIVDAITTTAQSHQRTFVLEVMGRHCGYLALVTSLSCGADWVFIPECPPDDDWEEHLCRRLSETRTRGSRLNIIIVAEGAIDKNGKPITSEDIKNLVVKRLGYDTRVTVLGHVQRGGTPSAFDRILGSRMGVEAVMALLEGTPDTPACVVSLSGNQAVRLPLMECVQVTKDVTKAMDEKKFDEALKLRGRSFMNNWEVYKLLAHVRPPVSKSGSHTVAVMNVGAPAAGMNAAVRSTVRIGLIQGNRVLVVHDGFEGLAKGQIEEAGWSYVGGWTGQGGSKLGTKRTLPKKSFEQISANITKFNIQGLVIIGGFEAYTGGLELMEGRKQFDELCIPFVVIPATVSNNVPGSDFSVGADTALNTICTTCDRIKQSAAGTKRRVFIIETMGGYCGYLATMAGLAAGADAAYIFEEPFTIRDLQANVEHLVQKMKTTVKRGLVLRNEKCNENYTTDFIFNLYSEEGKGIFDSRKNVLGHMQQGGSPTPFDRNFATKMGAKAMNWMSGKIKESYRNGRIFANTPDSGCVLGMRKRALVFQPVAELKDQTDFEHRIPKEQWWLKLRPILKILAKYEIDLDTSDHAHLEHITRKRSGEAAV
Assay: competitive isoTOP-ABPP
Assay type: binding
Settings: 50 uM, 231 sol, in vitro
Collected isoTOP-ABPP reactivity ratio at lysine P08237_K678 values appear next to each entry.
Number, no unit, nothing else.

[in] Recorded isoTOP-ABPP reactivity ratio at lysine P08237_K678 for O=C(Oc1c(F)c(F)c(F)c(F)c1F)c1ccc2ccccc2n1 [fragment 25] with PFKM 6-phosphofructokinase, muscle type (Homo sapiens, UniProt P08237), please?
[out] 1.3

[in] Thanks! And O=C(CCc1cn(-c2ccccc2)nc1-c1ccccc1)Oc1ccc([N+](=O)[O-])cc1[N+](=O)[O-] [fragment 29] ?
[out] 1.8

[in] What about O=C(Oc1c(F)c(F)c(F)c(F)c1F)C1CCN(C(=O)OCc2ccccc2)CC1 [fragment 24] ?
[out] 1.1

* * *

Target: SRP54 Signal recognition particle 54 kDa protein (Homo sapiens, UniProt P61011)
Construct: isoTOP-ABPP experiments performed in cell lysates (in vitro); endogenous in cells; host or cells: soluble proteome of human cancer cell lines (MDA-MB-231, Ramos, Jurkat)
Sequence (P61011 whole entry): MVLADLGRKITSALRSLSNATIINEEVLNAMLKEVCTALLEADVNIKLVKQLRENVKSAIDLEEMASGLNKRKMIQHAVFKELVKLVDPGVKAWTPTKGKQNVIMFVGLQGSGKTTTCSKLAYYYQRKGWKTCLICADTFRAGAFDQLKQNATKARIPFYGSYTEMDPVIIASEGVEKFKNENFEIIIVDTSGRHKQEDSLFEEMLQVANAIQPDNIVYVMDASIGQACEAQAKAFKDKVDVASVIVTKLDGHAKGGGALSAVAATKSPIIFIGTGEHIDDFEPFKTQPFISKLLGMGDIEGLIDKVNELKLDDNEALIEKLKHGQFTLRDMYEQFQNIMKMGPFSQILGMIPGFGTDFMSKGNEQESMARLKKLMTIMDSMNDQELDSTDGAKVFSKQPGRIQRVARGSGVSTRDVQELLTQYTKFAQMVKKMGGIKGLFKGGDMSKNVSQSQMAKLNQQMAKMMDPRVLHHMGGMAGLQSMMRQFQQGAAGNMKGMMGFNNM
Assay: competitive isoTOP-ABPP
Type: binding
Conditions: 50 uM, in vitro, sol, 231
Description: In vitro covalent fragment treatment for isoTOP-ABPP. All compounds were made up as solutions in DMSO (100×) and were used at a final concentration of 50 μM for activated esters and 100 μM for guanidinylating agents. […] R value calculation and processing. The ratios of light and heavy MS1 peaks for each unique peptide were quantified with a CIMAGE software using default parameters (3 MS1 acquisitions per peak and signal to noise threshold set to 2.5). […]
Outcome label depends on isoTOP-ABPP ratio (R) at liganded lysine P61011_K81 relative to 0.9: at/above gives criterion met, below gives criterion not met.

Recorded results for 4 compounds are shown here.
INSERT INTO measurements (compound, classification) VALUES
  ('O=C(Oc1ccc([N+](=O)[O-])cc1[N+](=O)[O-])C1CCN(C(=O)OCc2ccccc2)CC1', 'criterion not met'),
  ('CC(C)(C)OC(=O)NCCCC(=O)Oc1ccc([N+](=O)[O-])cc1[N+](=O)[O-]', 'criterion met'),
  ('O=C(CCc1coc2cc(F)ccc2c1=O)Oc1ccc([N+](=O)[O-])cc1[N+](=O)[O-]', 'criterion met'),
  ('O=C(Oc1ccc([N+](=O)[O-])cc1[N+](=O)[O-])c1ccc2ccccc2n1', 'criterion not met');

[in] Given CC(=O)Oc1ccc([N+](=O)[O-])cc1[N+](=O)[O-] [fragment 43, 2,4-Dinitrophenyl acetate] , state whether its isoTOP-ABPP ratio (R) at liganded lysine P61011_K81 is at least 0.9.
[out] criterion met
